target: BuChE (equine serum) (Equus caballus, UniProt P81908); construct: 0.11 mM for BuChE (equine serum); from tissue; host or cells: equine serum; experiment: BuChE inhibition, Ellman's assay; type: biochemical; conditions: equine serum, pH 8.0; read-out: IC50 BuChE
Sequence (P81908 whole entry): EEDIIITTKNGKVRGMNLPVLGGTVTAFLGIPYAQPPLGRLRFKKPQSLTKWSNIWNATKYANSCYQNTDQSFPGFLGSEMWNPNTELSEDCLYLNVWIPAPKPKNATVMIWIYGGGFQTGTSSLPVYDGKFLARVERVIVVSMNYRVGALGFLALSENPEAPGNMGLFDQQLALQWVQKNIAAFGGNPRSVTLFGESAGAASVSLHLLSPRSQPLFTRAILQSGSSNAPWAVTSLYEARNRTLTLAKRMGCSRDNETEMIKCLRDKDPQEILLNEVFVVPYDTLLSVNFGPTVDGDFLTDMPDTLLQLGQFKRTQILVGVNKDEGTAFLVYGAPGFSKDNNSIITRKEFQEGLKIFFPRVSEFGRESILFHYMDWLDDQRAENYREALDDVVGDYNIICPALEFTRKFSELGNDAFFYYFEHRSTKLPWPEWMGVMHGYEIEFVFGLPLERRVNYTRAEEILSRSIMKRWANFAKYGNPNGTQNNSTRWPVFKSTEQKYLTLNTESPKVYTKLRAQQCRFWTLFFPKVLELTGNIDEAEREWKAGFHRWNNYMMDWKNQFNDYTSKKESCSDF
reported metric: IC50 (µM)

> print(dat)
                                    compound  reported.metric  censoring.operator  recorded.number
 1  COc1ccc(CCOCCCCCCN2C[C@H](O)[C@@H](O)[C@H](O)[C@H]2CO)cc1OC [Compound 11e]             IC50                   =              1.9
 2  COc1cc(CCOCCCCCCN2C[C@H](O)[C@@H](O)[C@H](O)[C@H]2CO)ccc1O [Compound 11f]             IC50                   =              1.8
 3  OC[C@@H]1[C@@H](O)[C@H](O)[C@@H](O)CN1CCCCCOCCc1ccccc1 [Compound 12a]             IC50                   >              100
 4  OC[C@@H]1[C@@H](O)[C@H](O)[C@@H](O)CN1CCCCCOCCc1ccc(O)c(O)c1 [Compound 12d]             IC50                   >              100
 5  OC[C@@H]1[C@@H](O)[C@H](O)[C@@H](O)CN1CCCCCCOCCc1ccc(O)c(O)c1 [Compound 11d]             IC50                   =               76
 6  OC[C@@H]1[C@@H](O)[C@H](O)[C@@H](O)CN1CCCCCCOCCc1ccccc1 [Compound 11a]             IC50                   >              100
 7  COc1ccc(CCOCCCCCN2C[C@H](O)[C@@H](O)[C@H](O)[C@H]2CO)cc1 [Compound 12c]             IC50                   >              100
 8  OC[C@@H]1[C@@H](O)[C@H](O)[C@@H](O)CN1CCCCCCOCCc1ccc(O)cc1 [Compound 11b]             IC50                   >              100
 9  OC[C@@H]1[C@@H](O)[C@H](O)[C@@H](O)CN1CCCCCCOCCc1ccc2c(c1)OCO2 [Compound 11g]             IC50                   =              7.3
10  COc1ccc(CCOCCCCCCN2C[C@H](O)[C@@H](O)[C@H](O)[C@H]2CO)cc1 [Compound 11c]             IC50                   >              100

---

target: BuChE (equine serum) (Equus caballus, UniProt P81908); construct: 0.11 mM for BuChE (equine serum); from tissue; host or cells: equine serum; assay: BuChE inhibition, Ellman's assay; type: biochemical; conditions: Cornish–Bowden method
reported metric: Mode of inhibition BuChE

> print(dat)
                                   molecule           result
1  OC[C@H]1NC[C@H](O)[C@@H](O)[C@@H]1O [Compound 1-DNJ, 1-deoxynojirimycin, reference compound]  Non-competitive
2  OC[C@@H]1[C@@H](O)[C@H](O)[C@@H](O)CN1CCCCCCOCCc1ccc2c(c1)OCO2 [Compound 11g]  Non-competitive
3  COc1cc(CCOCCCCCCN2C[C@H](O)[C@@H](O)[C@H](O)[C@H]2CO)ccc1O [Compound 11f]            Mixed
